# Tested on: A549
# ASSAY_TEXT: Cytotoxicity against human A549 cells assessed as reduction in cell viability using compound addition to cell culture cells in log phase of growth and incubated for 48 hrs by MTT assay
# Assay type: functional, cell-based
# CONDITIONS_USED: Homo sapiens, A549, 48 h; read-out: IC50
Listed compounds paired with reported pIC50
Field pIC50 (float): negative decimal logarithm of the concentration in molar.

STRUCTURE_AS_SMILES | EXPERIMENTAL_SYSTEM | READOUT_NAME | MEASURED
CC1=C(CO[Si](C)(C)C(C)(C)C)C(=O)O[C@@H]([C@@H](C)[C@H]2CC[C@H]3[C@@H]4C[C@H]5O[C@]56[C@@H](O)C=CC(=O)[C@]6(C)[C@H]4CC[C@]23C)C1 | A549 | pIC50 | 5.40

Proceeding to the next compound to report its pIC50.
Q: Item COC(=O)CCC(=O)OCC1=C(C)C[C@H]([C@@H](C)[C@H]2CC[C@H]3[C@@H]4C[C@H]5O[C@]56[C@@H](OC(=O)CCC(=O)OC)C=CC(=O)[C@]6(C)[C@H]4CC[C@]23C)OC1=O has what recorded pIC50?
Ans: 5.47
